// cross-source set; read-out = pKi; system = fMet-Leu-Phe receptor (Homo sapiens, UniProt P21462)
Sequence (P21462 whole entry): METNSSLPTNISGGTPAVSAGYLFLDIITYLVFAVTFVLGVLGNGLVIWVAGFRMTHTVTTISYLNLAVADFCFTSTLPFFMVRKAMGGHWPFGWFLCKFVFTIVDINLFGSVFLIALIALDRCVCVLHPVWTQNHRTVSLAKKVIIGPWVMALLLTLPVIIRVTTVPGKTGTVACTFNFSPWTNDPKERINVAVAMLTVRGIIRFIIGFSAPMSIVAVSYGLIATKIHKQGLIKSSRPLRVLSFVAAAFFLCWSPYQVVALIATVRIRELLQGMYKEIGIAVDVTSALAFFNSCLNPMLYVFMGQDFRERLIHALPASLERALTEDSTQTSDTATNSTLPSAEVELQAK
pKi: −log10 of the molar value.
READOUT LABEL: pKi

> print(dat)
                                    molecule  result
 1  COc1ccc(C2C(C(=O)c3ccco3)C(=O)C(=O)N2Cc2cccnc2)cc1OC (stereo unspecified)  < 4.36
 2  CCN(CC)c1ccc(C=NC(C#N)C(=N)C#N)cc1 (stereo unspecified)  < 4.36
 3  O=C1NC(c2ccc(Br)cc2)C(C(=O)c2ccc(Cl)cc2)C1=O (stereo unspecified)  < 4.35
 4  COc1cc(C2C(C(=O)c3ccco3)C(=O)C(=O)N2CCc2ccccc2)ccc1O (stereo unspecified)  < 4.36
 5  CCOc1ccc(C(=O)C2C(=O)C(=O)N(CC3CCCO3)C2c2ccco2)cc1 (stereo unspecified)    4.68
 6  COCCCN1C(=O)C(=O)C(C(=O)c2ccco2)C1c1ccc(Br)cc1 (stereo unspecified)    5.02
 7  Cc1ccc(C(=O)C2C(=O)C(=O)N(CC(C)O)C2c2ccc(N(C)C)cc2)cc1 (stereo unspecified)  < 4.36
 8  COCCN1C(=O)C(=O)C(C(=O)c2cccs2)C1c1ccccc1 (stereo unspecified)  < 4.36
 9  N#Cc1c(N=C(CC(=O)c2ccccc2)C(=O)O)sc2c1CCC2  < 4.35
10  COc1ccc(C(=O)C2C(=O)C(=O)N(CCc3c[nH]c4ccccc34)C2c2ccc(C(C)C)cc2)cc1 (stereo unspecified)  < 4.35
11  COc1ccc(C(=O)C2C(=O)C(=O)N(CCN3CCOCC3)C2c2ccc(C)cc2)cc1 (stereo unspecified)  < 4.36
12  COc1cc(C2C(C(=O)c3ccc4c(c3)CC(C)O4)C(=O)C(=O)N2CCCn2ccnc2)ccc1O (stereo unspecified)    4.42
13  COc1ccc(CC(=O)Nc2cc(-c3cn4cccnc4n3)ccc2OC)cc1  < 4.43
14  COc1cccc(C2C(C(=O)c3ccc(OC)c(OC)c3)C(=O)C(=O)N2c2cc(C)on2)c1 (stereo unspecified)  < 4.36
15  COc1cc(C2C(C(=O)c3cc4ccccc4o3)C(=O)C(=O)N2CCN(C)C)ccc1O (stereo unspecified)  < 4.35
16  CCOc1cccc(C(=O)C2C(=O)C(=O)N(Cc3cccnc3)C2c2ccco2)c1 (stereo unspecified)  < 4.36

###

// cross-source set; read-out = Ki; system = fMet-Leu-Phe receptor (Homo sapiens)
# label = MET if Ki < 20 µM else NOT MET

MOLECULE	LABEL
COc1ccccc1C1C(C(=O)c2ccccc2)C(=O)C(=O)N1CCO (centres undefined)	MET
Cc1cc(N2C(=O)C(=O)C(C(=O)c3ccco3)C2c2cccnc2)no1 (centres undefined)	NOT MET
C=C(c1ccc(Br)cc1)c1sc(N2CCCC2)nc1O	NOT MET
O=C1C(=O)N(Cc2ccccc2)C(c2ccco2)C1C(=O)c1ccco1 (centres undefined)	MET
O=C1C(=O)N(CC2CCCO2)C(c2cccnc2)C1C(=O)c1ccco1 (centres undefined)	NOT MET
COc1ccc(C(=O)C2C(=O)C(=O)N(Cc3ccco3)C2c2ccc(OC)cc2OC)cc1 (centres undefined)	NOT MET
Cc1ccc(C2C(C(=O)c3ccc(Br)cc3)C(=O)C(=O)N2Cc2ccco2)o1 (centres undefined)	NOT MET
CC(C)c1ccc(C2C(C(=O)c3ccccc3)C(=O)C(=O)N2Cc2cccnc2)cc1 (centres undefined)	NOT MET
COc1ccc(OC)c(C2C(C(=O)c3ccco3)C(=O)C(=O)N2CCCN2CCOCC2)c1 (centres undefined)	MET
COCc1cc(C2C(C(=O)c3ccco3)C(=O)C(=O)N2CCOCCO)ccc1O (centres undefined)	MET
CSCCC1c2c(-c3cccs3)n[nH]c2OC(=N)C1C#N (centres undefined)	NOT MET
COc1ccc(OC)c(C2C(C(=O)c3cccs3)C(=O)C(=O)N2c2cc(C)on2)c1 (centres undefined)	NOT MET
COc1ccc(OC)c(C2C(C(=O)c3ccccc3)C(=O)C(=O)N2c2ccc(C)c(Cl)c2)c1 (centres undefined)	MET
Cc1ccc(C(=O)C2C(=O)C(=O)N(CCN3CCOCC3)C2c2cccnc2)cc1 (centres undefined)	NOT MET
CSCC[C@H](NC(=O)[C@H](Cc1ccc(O)cc1)NC(=O)[C@H](CCCCN)NC(=O)[C@@H](N)Cc1c[nH]c2ccccc12)C(=O)N[C@@H](Cc1ccccc1)C(=O)N[C@H](CCSC)C(N)=O	MET
CC1=NC(C)=C(C#N)C(c2ccc3ncccc3c2)C1C#N (centres undefined)	NOT MET
COc1cc(C2C(C(=O)c3cccs3)C(=O)C(=O)N2Cc2ccco2)cc(OC)c1OC (centres undefined)	MET
COc1ccc(C2C(C(=O)c3ccccc3)C(=O)C(=O)N2CC(C)O)c(OC)c1 (centres undefined)	NOT MET

###

// cross-source set; read-out = Ki; system = UniProtKB P21462
READOUT LABEL: Ki

> print(dat)
                                    molecule     result
 1  Cc1ccc(C(=O)C2C(=O)C(=O)N(Cc3ccccc3)C2c2cccnc2)o1 (stereo not given)  > 43.7 µM
 2  COC(=O)Cc1n[nH]c2c1C(C1C=CCCC1)C(C#N)C(=N)O2 (stereo not given)  > 43.7 µM
 3  O=C(N1CCN(c2nc(-c3ccccc3)c3ccccc3n2)CC1)C(F)(F)F  > 37.6 µM
 4  COc1ccc(C2C(C(=O)c3ccco3)C(=O)C(=O)N2CCc2ccccc2)cc1OC (stereo not given)    24.1 µM
 5  O=C1C(=O)N(Cc2ccccc2)C(c2ccncc2)C1C(=O)c1ccco1 (stereo not given)     8.9 µM
 6  COc1ccc(-c2cc(C(F)(F)F)nc(N3CCN(C(c4ccccc4)c4ccccc4)CC3)n2)cc1OC  > 27.2 µM
 7  Cc1ccc(C2C(C(=O)c3ccc(Cl)cc3)C(=O)C(=O)N2CC2CCCO2)o1 (stereo not given)     7.6 µM
 8  O=C1C(=O)N(CCc2ccccc2)C(c2ccc(Cl)cc2)C1C(=O)c1cccs1 (stereo not given)     6.9 µM
 9  COc1ccc(C2C(C(=O)c3cccs3)C(=O)C(=O)N2CCN2CCOCC2)c(OC)c1 (stereo not given)     2.9 µM
10  COc1ccc(C(=O)C2C(=O)C(=O)N(c3nc(C)c(C)s3)C2c2ccco2)cc1 (stereo not given)  > 43.7 µM
11  O=C1C(=O)N(c2ncccn2)C(c2cccc(Cl)c2)C1C(=O)c1ccco1 (stereo not given)  > 43.7 µM
12  CCOc1cccc(C(=O)C2C(=O)C(=O)N(Cc3ccco3)C2c2ccncc2)c1 (stereo not given)  > 43.7 µM
13  O=C1C(=O)N(CCCn2ccnc2)C(c2cccnc2)C1C(=O)c1ccco1 (stereo not given)  > 44.3 µM
14  O=C1C(=O)N(CCOCCO)C(c2cccs2)C1C(=O)c1cccs1 (stereo not given)      14 µM
15  COc1cccc(C(=O)C2C(=O)C(=O)N(Cc3cccnc3)C2c2ccco2)c1 (stereo not given)  > 43.7 µM
16  COc1ccc(-c2cc(C(F)(F)F)nc(N3CCN(c4ccccc4)CC3)n2)cc1OC  > 32.7 µM
17  COc1ccc(OC)c(C2C(C(=O)c3cc4ccccc4o3)C(=O)C(=O)N2c2cc(C)on2)c1 (stereo not given)    23.9 µM
18  O=C1C(=O)N(CCCn2ccnc2)C(c2cccnc2)C1C(=O)c1cc2ccccc2o1 (stereo not given)  > 44.3 µM
19  COCCCN1C(=O)C(=O)C(C(=O)c2ccco2)C1c1cccc(Br)c1 (stereo not given)    20.4 µM
20  COc1ccc(C2C(C(=O)c3cccs3)C(=O)C(=O)N2c2nnc(C)s2)cc1OC (stereo not given)  > 43.7 µM
